# experiment-description: in vivo
# Set-up: species or system mice
# conditions-used: male, NOD.Cg-Rag1tm1Mom Il2rgtm1Wjl/SzJ (NRG), mouse, iv, total radioactivity, Biodistribution: Small Intestine
Where a SMILES comes first, the peptide text is derived from it. Bridges are numbered along the chain shown (N, C = ends). Side-chain parts run from the residue outwards. [ ]: non-standard residue; d: D form. The star is where a group is joined. X4 = O=C(O)CN1CCN(CC(=O)O)CCN(CC(=O)N[C@@H](CS(=O)(=O)O)C(=O)NCCCC[C@H](NC(=O)CNC(=O)CCCc2ccc(Cl)cc2)C(=O)*)CCN(CC(=O)O)CC1; X1 = O=C(O)CN1CCN(CC(=O)O)CCN(CC(=O)N[C@@H](CS(=O)(=O)O)C(=O)N[C@@H](CCCCNC(=O)CCCc2ccc(I)cc2)C(=O)*)CCN(CC(=O)O)CC1; X7 = COc1ccc(CCCC(=O)NCCCC[C@H](NC(=O)CN2CCN(CC(=O)O)CCN(CC(=O)O)CCN(CC(=O)O)CC2)C(=O)*)cc1; DOTA = O=C(O)CN1CCN(CC(=O)O)CCN(CC(=O)*)CCN(CC(=O)O)CC1; NMeLys(iPr) = CN[C@@H](CCCCNC(C)C)C(=O)O; 2Nal = N[C@@H](Cc1ccc2ccccc2c1)C(=O)O; Lys(iPr) = CC(C)NCCCC[C@H](N)C(=O)O; Cya = N[C@@H](CS(=O)(=O)O)C(=O)O
Listing of recorded tissue uptake at 1 h by entry.
Numeric only. Scale: %ID/g

Guide cases for tissue uptake at 1 h, answers given:
molecule	tissue uptake at 1 h, %ID/g
CC(C)NCCCC[C@H](NC(=O)[C@H]1CCC(=O)N[C@@H](CCCCNC(=O)[C@H](CCCCNC(=O)CCCc2ccc(I)cc2)NC(=O)[C@H](CS(=O)(=O)O)NC(=O)CN2CCN(CC(=O)O)CCN(CC(=O)O)CCN(CC(=O)O)CC2)C(=O)N[C@@H](Cc2ccc(O)cc2)C(=O)N[C@@H](CCCCNC(C)C)C(=O)N[C@H](CCCNC(=N)N)C(=O)N[C@@H](Cc2ccc3ccccc3c2)C(=O)N[C@H](C)C(=O)N1)C(N)=O [[^68Ga]Ga-BL34L11, metal not drawn] (K(X1)Y[Lys(iPr)][dR][2Nal][dA][dE][Lys(iPr)]-NH2; lactam N-7)	1.28
CC(C)NCCCC[C@H](NC(=O)[C@H]1CCC(=O)N[C@@H](CCCCNC(=O)[C@H](CCCCNC(=O)[C@H](CS(=O)(=O)O)NC(=O)CN2CCN(CC(=O)O)CCN(CC(=O)O)CCN(CC(=O)O)CC2)NC(=O)CNC(=O)CCCc2ccc(Cl)cc2)C(=O)N[C@@H](Cc2ccc(O)cc2)C(=O)N[C@@H](CCCCNC(C)C)C(=O)N[C@H](CCCNC(=N)N)C(=O)N[C@@H](Cc2ccc3ccccc3c2)C(=O)N[C@H](C)C(=O)N1)C(N)=O [[68Ga]Ga-BL34T1, metal not drawn] (K(X4)Y[Lys(iPr)][dR][2Nal][dA][dE][Lys(iPr)]-NH2; lactam N-7)	1.31
COc1ccc(CCCC(=O)NCCCC[C@H](NC(=O)CN2CCN(CC(=O)O)CCN(CC(=O)O)CCN(CC(=O)O)CC2)C(=O)N[C@@H](CS(=O)(=O)O)C(=O)NCCCC[C@@H]2NC(=O)CC[C@H](C(=O)N[C@@H](CCCCNC(C)C)C(N)=O)NC(=O)[C@@H](C)NC(=O)[C@H](Cc3ccc4ccccc4c3)NC(=O)[C@@H](CCCNC(=N)N)NC(=O)[C@H](CCCCNC(C)C)NC(=O)[C@H](Cc3ccc(O)cc3)NC2=O)cc1 [[68Ga]Ga-BL34L6, metal not drawn] (K([Cya-X7])Y[Lys(iPr)][dR][2Nal][dA][dE][Lys(iPr)]-NH2; lactam N-7)	0.24

Okay, next one:
Query: Given the molecule CC(C)NCCCC[C@H](NC(=O)[C@H]1CCC(=O)N[C@@H](CCCCNC(=O)[C@H](CS(=O)(=O)O)NC(=O)CN2CCN(CC(=O)O)CCN(CC(=O)O)CCN(CC(=O)O)CC2)C(=O)N[C@@H](Cc2ccc(O)cc2)C(=O)N(C)[C@@H](CCCCNC(C)C)C(=O)N[C@H](CCCNC(=N)N)C(=O)N[C@@H](Cc2ccc3ccccc3c2)C(=O)N[C@H](C)C(=O)N1)C(N)=O [[^68Ga]Ga-BL34N1, metal not drawn] (K([Cya-DOTA])Y[NMeLys(iPr)][dR][2Nal][dA][dE][Lys(iPr)]-NH2; lactam N-7) , what is its reported tissue uptake at 1 h?
Response: 0.19
